Provide the recorded growth inhibition for the entries that follow.
Experiment: NCI Yeast Anticancer Drug Screen. Data for the cln2 rad14 strain (AID 165);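 further: 0% = growth equal to vehicle treated cultures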
Conditions: S. cerevisiae cln2 rad14 strain, at 50.0 µM, hits give high values
Compounds without any hit were thinned out: in the full panel of roughly 79,000, 15% have a hit.
One number for each entry, in %.

Please review the entries below; each comes with its answer.
• C/C=C1\C(=O)OC2CCN3CCC(COC(=O)C(C)(O)C(C)C1O)C23 (configuration not stated) = -13.7
• O=c1cnn2c(n1)sc1ccc3ccccc3c12 = 0.65
• CCCCCCCSSCCCCCCC = 11.9
• COc1ccc(CC2c3cc(OC)c(OC)cc3CCN2C(=O)c2ccccc2)cc1OC (configuration not stated) = 16.3
• CSCc1cc(C)ccc1NC(C)=O = -16.5
• Clc1ccc(CCn2cncn2)cc1 = -11.7

Hi team, please reply with growth inhibition for each item in this list.
1. c1ccc(CN2CCc3ncnc(Nc4ccccc4)c3C2)cc1
2. CC1CC[C@]2(C(=O)O)CCC3(COC(=O)/C=C\c4ccc(O)cc4)C(=CCC4[C@@]5(C)CC[C@H](O)C(C)(C)C5CC[C@]43C)[C@@H]2[C@H]1C (some centres not stated)
3. N#CCCn1[nH]c(=O)c(Cl)c(Cl)c1=O
4. CC(C)(C)[N]=[V]([Cl])([Cl])[Cl]
5. CCOC(OCC)c1ccccc1C
6. O=C1c2ccccc2NC(c2cc(Cl)cc(Cl)c2O)N1CCc1ccccn1 (configuration not stated)

[-16.8, 5.55, -6.8, -6.35, -36.5, 14.7]

---

Please respond with reported growth inhibition for every item in the list.
Assay: NCI Yeast Anticancer Drug Screen. Data for the sgs1 mgt1 strain (AID 161);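 further: 0% = growth of cultures given vehicle only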
Settings: S. cerevisiae sgs1 mgt1 strain, at 50.0 µM, hits give high values
About 79,000 compounds went through this panel and 15% of them were active in at least one assay; those are over-represented in the sample as a whole.
Numbers only, in %.

Example entries begin here.
* CC(=O)CC(=O)OC1CCCC(C)C1 (stereo not drawn) | -17.9
* COC(=O)C1=C(c2ccccc2)c2ccc3ccccc3c2C1c1ccccc1 (stereo not drawn) | 22.9
* c1ccc2c(c1)Oc1ccccc1S2 | -0.15
* CC(Nc1cccc(Cl)c1)S(=O)(=O)O (stereo not drawn) | -8
* C=C(C)COc1ccc(C2OCC(CC)C(CCC)O2)cc1 (stereo not drawn) | -7.5

// for each molecule below, give its growth inhibition
1. CC(C)(C)c1cc(C(=O)O)ccc1C(=O)O
2. O=C1C=CC(=CC=C2C=CN(CCCCCCO)C=C2)C=C1

-2.75
26.2

Could you tell me growth inhibition for each of these molecules? They are listed below.
1. COc1cccc(C2c3cc4c(cc3OC(N3CCCC3)C2C)OCO4)c1O (stereo not drawn)
2. Cc1c(CCNC(=O)C(F)(F)F)ccc2c1[nH]c1ccccc12
3. O=c1c2c([nH]c3c1ccc1[nH]c4c(c(=O)c13)CCCC4)CCCC2
4. O=C1OC2C(O)COC2(O)C1(O)Cc1c[nH]c2ccccc12 (stereo not drawn)
5. COC(=O)C(C)c1cccc2ccc3ccccc3c12 (stereo not drawn)
6. COc1ccc(NC(=O)COC(=O)c2cccc3c(=O)c4ccccc4[nH]c23)cc1

1. 3.3
2. 11.8
3. -12.6
4. -5.45
5. 16.2
6. 27.4
